# METHOD SUMMARY: Conversion rate of substrate compound A by E. coli expressing each engineered protein (HPLC, oxygenase activity)
# Assay type: biochemical
# CONDITION DETAILS: Reaction condition 2: bacteria cultured overnight, 8 times dose of substrate compound A of condition 1 added, react 3 hours the next day

# MOLECULE, Conversion rate
measured = [
    ("SEQ ID NO: 134 (protein) MHAALSPLSQRFERIAVQPLTGVLGAEITGVDLREPLDDSTWNEILDAFHTYQVIYFPGQAITNEQHIAFSRRFGPVDPVPHLKSIEGYPEVQMIRREANESGGVIGDDWHSDSTFLDAPPAAVVMRAIDVPEHGGDTGFLSMYTAWETLSPTMQATIEGLNVVHSATRVFGSLYQAQNWRWSNTSLKVMDVDAGDRETVHPLVVTHPGSGRKGLYVNQVYCQRIEGMTDAESKPLLQFLYEHATRFDFTCRVRWKKDQVLVWDNLCTMHRAVPDYAGKFRYLTRTTVGGVRPAR", "77.6%"),
    ("SEQ ID NO: 142: RdpA mutant L82H + V187L + F182W + R104G + T112S + R180Q (protein) MHAALSPLSQRFERIAVQPLTGVLGAEITGVDLREPLDDSTWNEILDAFHTYQVIYFPGQAITNEQHIAFSRRFGPVDPVPHLKSIEGYPEVQMIRREANESGGVIGDDWHSDSTFLDAPPAAVVMRAIDVPEHGGDTGFLSMYTAWETLSPTMQATIEGLNVVHSATRVFGSLYQAQNQRWSNTSLKVMDVDAGDRETVHPLVVTHPGSGRKGLYVNQVYCQRIEGMTDAESKPLLQFLYEHATRFDFTCRVRWKKDQVLVWDNLCTMHRAVPDYAGKFRYLTRTTVGGVRPAR", "67%"),
]
